- measured target: Muscarinic acetylcholine receptor M1 (Homo sapiens) (UniProt P11229)
- Sequence (whole entry): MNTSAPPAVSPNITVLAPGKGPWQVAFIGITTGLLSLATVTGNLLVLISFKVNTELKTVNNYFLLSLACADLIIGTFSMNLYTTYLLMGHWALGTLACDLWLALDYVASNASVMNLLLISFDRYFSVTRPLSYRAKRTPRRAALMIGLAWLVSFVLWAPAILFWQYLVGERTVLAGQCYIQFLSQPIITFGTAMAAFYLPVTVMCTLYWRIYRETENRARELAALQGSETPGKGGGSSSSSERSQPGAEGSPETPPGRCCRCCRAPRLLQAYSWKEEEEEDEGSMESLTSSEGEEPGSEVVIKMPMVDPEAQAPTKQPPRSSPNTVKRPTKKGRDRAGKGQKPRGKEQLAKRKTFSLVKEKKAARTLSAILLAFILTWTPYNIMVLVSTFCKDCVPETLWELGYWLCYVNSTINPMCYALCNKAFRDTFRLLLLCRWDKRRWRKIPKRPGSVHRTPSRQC
- protocol: Percent stimulation of phospholipid hydrolysis in BHK cells transfected with human Muscarinic acetylcholine receptor M1 compared to maximal stimulation of carbachol at a dose of 100 uM
- Format: functional, cell-based
Reported Stimulation is given for each of the following compounds.
assay readout: Stimulation (%)

* CCCOc1nsnc1C1=CC(C)CN(C)C1 (stereo unspecified) | 6
* CCCCOc1nsnc1C1=CCC(C)N(C)C1 (stereo unspecified) | 9
* CCCCCCOc1nsnc1C1=CCCN(C)C1 | 70
* CCCCCCOc1nsnc1C1=CCC(C)N(C)C1 (stereo unspecified) | 27
* CCOc1nsnc1C1=CCC(C)N(C)C1 (stereo unspecified) | 10
* CCCOc1nsnc1C1=CCCN(C)C1 | 25
* C=CCCCOc1nsnc1C1=CCC(C)N(C)C1 (stereo unspecified) | 12
* CCCCCCOc1nsnc1C1=CC(C)CN(C)C1 (stereo unspecified) | 12
* CCC#CCCOc1nsnc1C1=CCC(C)N(C)C1 (stereo unspecified) | 12
* CCCCCOc1nsnc1C1=CCC(C)N(C)C1 (stereo unspecified) | 18
* COc1nsnc1C1=CCCN(C)C1 | 7

Source of measurements: ChEMBL document CHEMBL1127972
